Provide the recorded conversion of 0708-30 by PAD4, 50 µM inhibitor (0 µM: 81) for the entries that follow.
target: recombinant human PAD4 (human, UniProt Q9UM07 1-663); test: cell-based or functional assay
Sequence (Q9UM07 whole entry): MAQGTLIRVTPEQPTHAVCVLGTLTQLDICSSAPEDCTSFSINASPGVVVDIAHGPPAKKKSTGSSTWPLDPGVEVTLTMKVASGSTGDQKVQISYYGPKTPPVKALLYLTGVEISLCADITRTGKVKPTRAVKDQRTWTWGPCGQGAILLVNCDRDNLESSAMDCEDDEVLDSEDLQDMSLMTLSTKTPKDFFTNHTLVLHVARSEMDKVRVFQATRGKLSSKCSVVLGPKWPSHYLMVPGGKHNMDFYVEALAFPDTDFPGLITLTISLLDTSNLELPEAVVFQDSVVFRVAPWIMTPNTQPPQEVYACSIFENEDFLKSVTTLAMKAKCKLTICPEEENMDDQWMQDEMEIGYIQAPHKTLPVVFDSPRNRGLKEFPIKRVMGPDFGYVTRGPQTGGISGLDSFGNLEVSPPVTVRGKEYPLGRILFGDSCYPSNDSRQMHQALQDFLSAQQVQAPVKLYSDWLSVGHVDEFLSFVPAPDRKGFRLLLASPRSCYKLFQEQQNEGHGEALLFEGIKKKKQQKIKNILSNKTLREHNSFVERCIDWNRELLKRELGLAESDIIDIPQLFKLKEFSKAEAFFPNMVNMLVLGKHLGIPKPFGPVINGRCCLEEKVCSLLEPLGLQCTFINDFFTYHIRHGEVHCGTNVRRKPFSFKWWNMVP
Square brackets hold non-standard residues; d marks the D form. Orn(fluoroacetimidoyl) = N=C(CF)NCCC[C@H](N)C(=O)O
Give bare numbers, in %.

Below, each entry is followed by its recorded conversion of 0708-30 by PAD4, 50 µM inhibitor (0 µM: 81) result.
Binder	Readout Number
Ac-KHD[Orn(fluoroacetimidoyl)]DFL-NH2 (SMILES CC(=O)N[C@@H](CCCCN)C(=O)N[C@@H](Cc1c[nH]cn1)C(=O)N[C@@H](CC(=O)O)C(=O)N[C@@H](CCCNC(=N)CF)C(=O)N[C@@H](CC(=O)O)C(=O)N[C@@H](Cc1ccccc1)C(=O)N[C@@H](CC(C)C)C(N)=O) [0748-25FA]	18
Ac-KLH[Orn(fluoroacetimidoyl)]EWM-NH2 (SMILES CSCC[C@H](NC(=O)[C@H](Cc1c[nH]c2ccccc12)NC(=O)[C@H](CCC(=O)O)NC(=O)[C@H](CCCNC(=N)CF)NC(=O)[C@H](Cc1c[nH]cn1)NC(=O)[C@H](CC(C)C)NC(=O)[C@H](CCCCN)NC(C)=O)C(N)=O) [0748-17FA]	32
Ac-KFD[Orn(fluoroacetimidoyl)]DFI-NH2 (SMILES CC[C@H](C)[C@H](NC(=O)[C@H](Cc1ccccc1)NC(=O)[C@H](CC(=O)O)NC(=O)[C@H](CCCNC(=N)CF)NC(=O)[C@H](CC(=O)O)NC(=O)[C@H](Cc1ccccc1)NC(=O)[C@H](CCCCN)NC(C)=O)C(N)=O) [0743-58FA]	19

stdin: # input binder: Ac-KWH[Orn(fluoroacetimidoyl)]DFF-NH2 (SMILES CC(=O)N[C@@H](CCCCN)C(=O)N[C@@H](Cc1c[nH]c2ccccc12)C(=O)N[C@@H](Cc1c[nH]cn1)C(=O)N[C@@H](CCCNC(=N)CF)C(=O)N[C@@H](CC(=O)O)C(=O)N[C@@H](Cc1ccccc1)C(=O)N[C@@H](Cc1ccccc1)C(N)=O) [0748-09FA] ; wanted: its conversion of 0708-30 by PAD4, 50 µM inhibitor (0 µM: 81)
stdout: 22
